# Target System: USP28 (Homo sapiens, UniProt Q96RU2)
# Construct: purchased R&D Systems
# Sequence (Q96RU2 1-1077): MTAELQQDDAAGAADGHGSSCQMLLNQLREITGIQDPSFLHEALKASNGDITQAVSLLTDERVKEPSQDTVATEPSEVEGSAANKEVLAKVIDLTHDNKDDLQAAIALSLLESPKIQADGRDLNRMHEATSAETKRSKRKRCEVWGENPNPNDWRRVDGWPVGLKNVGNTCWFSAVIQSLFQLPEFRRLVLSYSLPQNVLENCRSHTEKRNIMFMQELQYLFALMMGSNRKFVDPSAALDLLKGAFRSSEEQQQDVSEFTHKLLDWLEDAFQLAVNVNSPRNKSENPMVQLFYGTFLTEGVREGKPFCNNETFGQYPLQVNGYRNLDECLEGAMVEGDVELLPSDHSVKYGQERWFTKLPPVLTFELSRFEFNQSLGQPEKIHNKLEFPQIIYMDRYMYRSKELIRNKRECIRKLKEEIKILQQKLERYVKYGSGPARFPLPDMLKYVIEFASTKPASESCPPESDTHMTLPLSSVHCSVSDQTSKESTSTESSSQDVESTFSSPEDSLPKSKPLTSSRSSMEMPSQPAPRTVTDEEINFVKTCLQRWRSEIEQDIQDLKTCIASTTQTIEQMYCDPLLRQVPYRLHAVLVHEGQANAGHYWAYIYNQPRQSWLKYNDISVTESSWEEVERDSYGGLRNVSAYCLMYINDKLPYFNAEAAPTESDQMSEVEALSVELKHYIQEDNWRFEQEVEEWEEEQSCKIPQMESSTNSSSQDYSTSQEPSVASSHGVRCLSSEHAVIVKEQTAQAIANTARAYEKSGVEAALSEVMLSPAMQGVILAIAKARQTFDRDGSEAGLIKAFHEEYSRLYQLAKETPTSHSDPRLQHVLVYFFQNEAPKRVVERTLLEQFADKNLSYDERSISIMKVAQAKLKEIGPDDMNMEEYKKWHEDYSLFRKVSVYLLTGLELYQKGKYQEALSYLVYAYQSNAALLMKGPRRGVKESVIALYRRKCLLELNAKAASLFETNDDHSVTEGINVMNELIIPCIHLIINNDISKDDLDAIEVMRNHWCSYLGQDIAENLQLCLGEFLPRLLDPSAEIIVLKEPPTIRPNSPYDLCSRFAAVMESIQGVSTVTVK
# Assay Notes: USP28 activity measured using ubiquitin-rhodamine 110 method
# Type: biochemical
# Protocol Conditions: purified USP28 4 nM, ubiquitin-rhodamine 110 125 nM, 30 min preincubation; read-out: Inhibitory activity against USP28 (IC50)
Observable: IC50

Value of IC50 reported for the compound CNc1c(C(=O)NCCc2ccc(N3C[C@H]4CC[C@@H](C3)N4)cc2)sc2nccnc12 [Compound I-70] is 1 to 5 µM

Value of IC50 reported for the compound CNc1c(C(=O)NCCc2ccc(N3C[C@H]4CC[C@@H](C3)N4)cc2)sc2ncc(C)cc12 [Compound I-19] is 1 to 5 µM

Value of IC50 reported for the compound CNc1c(C(=O)N[C@H](COC)Cc2ccc(N3C[C@H]4CC[C@@H](C3)N4)cc2)sc2nc(C)ccc12 [Compound I-65] is 0.1 to 1 µM

Value of IC50 reported for the compound CNc1c(C(=O)NCCc2csc3ccccc23)sc2nc(C)ccc12 [Compound I-57] is < 0.1 µM

Value of IC50 reported for the compound CNc1c(C(=O)NCCc2ccc(N3C[C@H]4CC[C@@H](C3)N4)c(C(F)(F)F)c2)sc2nc(C)ccc12 [Compound I-41] is 0.1 to 1 µM

Value of IC50 reported for the compound CNc1c(C(=O)NCCc2ccc(N3C[C@H]4CC[C@@H](C3)N4)cc2)sc2nc(Cl)ccc12 [Compound I-82] is 0.1 to 1 µM

Value of IC50 reported for the compound CNc1c(C(=O)N[C@@H]2Cc3ccc(N4CC5CCC(C4)N5)cc3C2)sc2nc(C)ccc12 [Compound I-83] is 0.1 to 1 µM
